GI50 reference
system: HCC-2998 colon; experiment: NCI tumour cell line growth inhibition, 48 h

Examples with answers:
compound=Cn1cc(C2=C(c3cn(CCCCC(=N)N)c4ccccc34)C(=O)NC2=O)c2ccccc21 quantityname=GI50 result="> 25 µM"
compound=Cc1c(Cl)cccc1NC(=O)c1sc2nc3c(cc2c1N)CCCC3 quantityname=GI50 result="> 100 µM"
compound=O=C(/C=C/c1cccc2ccccc12)Nc1ncc(Cc2ccccc2)s1 quantityname=GI50 result="2.57 µM"

Lab note: HCC-2998 colon assay, enter GI50 for O=C(Nc1cccc(C(F)(F)F)c1)c1cc2ccccc2cc1O here
3.35 µM

Lab note: HCC-2998 colon assay, enter GI50 for COc1cc(/C=N/NC(=O)c2ccccc2Nc2cccc(C(F)(F)F)c2)cc(OC)c1OC here
5.29 µM

Lab note: HCC-2998 colon assay, enter GI50 for CN=C(N)N/N=C(\C)c1ccc2c(c1)Cc1ccccc1-2 here
1.67 µM

Lab note: HCC-2998 colon assay, enter GI50 for Cc1cc2nc(-c3c(F)cccc3Cl)n(Cc3c(F)cccc3Cl)c2cc1C here
11.2 µM

Lab note: HCC-2998 colon assay, enter GI50 for O=C(c1ccc2ccccc2c1)c1c(C(F)(F)F)n([O-])c2ccc(F)cc2[n+]1=O here
0.892 µM

Lab note: HCC-2998 colon assay, enter GI50 for O=C1/C(=C\c2ccccc2)C2OCC=C3CN4CCC56c7ccccc7N1C5C2C3CC46 (stereo not drawn) here
4.93 µM

Lab note: HCC-2998 colon assay, enter GI50 for Cc1cc(Nc2nc(-c3ccncc3)nc3ccccc23)n[nH]1 here
29.6 µM

Lab note: HCC-2998 colon assay, enter GI50 for CCCN1CCC=C(c2ccc(Nc3nc(Nc4ccccc4C(N)=O)c4cc[nH]c4n3)c(C)c2)C1 here
5.7 µM

Lab note: HCC-2998 colon assay, enter GI50 for O=C(Nc1nc2ccccc2s1)c1cc(-c2ccc(F)cc2)n2nc(-c3ccccc3)cc2n1 here
> 100 µM

Lab note: HCC-2998 colon assay, enter GI50 for CN(C(=O)CNC(=O)/C=C/c1cccc(Cl)c1)C1CCS(=O)(=O)CC1 here
0.663 µM
